Tested on: SNB-75 CNS
protocol description: NCI-60 one-dose screen, 48 h
conditions: 10 µM
The panel holds about 83,000 compounds, 20% with a hit somewhere; the sample as a whole holds those more often. Calls of active or inactive are those of the source. The calls were made as follows: active = growth percent below 10; inactive = the rest.
Classes used: true (active), false (inactive)

[[record]]
molecule = "O=C(CCCNC(=O)c1nc(-c2ccccc2)n(-c2ccccc2)n1)NO"
category_label = "false"

[[record]]
molecule = "N#Cc1ccc(C(=O)CSc2nccc(Nc3ccc(C(=O)O)cc3)n2)cc1"
category_label = "false"

[[record]]
molecule = "NS(=O)(=O)Oc1ccc(NC(=O)C2CCCCCC2)cc1"
category_label = "false"

[[record]]
molecule = "Clc1nc2ccc(Br)cc2cc1-c1nc2ccccc2[nH]1"
category_label = "false"

[[record]]
molecule = "NS(=O)(=O)c1ccc(Br)cc1"
category_label = "false"

[[record]]
molecule = "O=C(N/N=C/c1ccc(Cl)cc1)c1ccc(Cc2n[nH]c(=O)c3cccnc23)cc1"
category_label = "false"

[[record]]
molecule = "COc1nc2c(c(=O)n1C)CN(c1ccccc1)C(=O)C(C)N2 (stereo unspecified)"
category_label = "false"

[[record]]
molecule = "CC(C)(C)OC(=O)N1CCc2c(sc3ncnc(N/N=C/c4ccc(Br)cc4)c23)C1"
category_label = "false"

[[record]]
molecule = "O=C1c2ccccc2C(=O)N1CCCCNc1ccccc1"
category_label = "false"

[[record]]
molecule = "Cc1ccc(-c2c3c(N)nc(-c4cccnc4)nc3nc3c2c(C)nn3-c2ccccc2)cc1"
category_label = "true"

[[record]]
molecule = "CN1C(C(=O)Nc2ccccn2)=C(O)c2sc(Cl)cc2S1(=O)=O"
category_label = "false"


###

Test system: HCT-116 colon
protocol description: NCI-60 one-dose screen, 48 h
conditions: 10 µM
The panel holds about 83,000 compounds, 20% with a hit somewhere; the sample as a whole holds those more often. Active and inactive are the calls of the source. How the source made its calls: active means growth percent below 10; inactive means the rest.
Classes used: active, inactive

[[record]]
compound = "NS(=O)(=O)c1ccc(Br)cc1"
category_label = "inactive"

[[record]]
compound = "COc1ccc(-c2cc(-c3ccc(Cl)cc3)nc(SCCCC(=O)NO)n2)cc1OC"
category_label = "active"

[[record]]
compound = "CC(C)(C)c1ccc(S(=O)(=O)N[C@H]2CC[C@H]3[C@@H]4CCc5cc(OS(=O)(=O)O)ccc5[C@H]4CC[C@]23C)cc1"
category_label = "inactive"

[[record]]
compound = "CC(=O)N[C@H](C(=O)N[C@@H](CCCNC(=N)N)C(=O)N[C@@H](CCCCN)C(=O)N[C@@H](CCCNC(=N)N)C(=O)N[C@]1(C)CCCCCC/C=C\\CCC[C@@](C)(C(=O)N[C@@H](CCCNC(=N)N)C(=O)N[C@@H](CCC(=O)O)C(=O)N[C@@H](CC(C)C)C(=O)N[C@H](C(=O)N[C@@H](CCC(=O)O)C(N)=O)C(C)C)NC(=O)[C@H](CCC(N)=O)NC(=O)[C@H](CC(C)C)NC(=O)[C@H](CC(C)C)NC(=O)[C@H](CCCNC(=N)N)NC(=O)[C@H](CCCNC(=N)N)NC(=O)[C@H](CC(C)C)NC1=O)C(C)C"
category_label = "inactive"

[[record]]
compound = "COc1cc(/C=C/c2cc(/C=C/c3ccc(O)c(OC)c3)[nH]c(=O)n2)ccc1O"
category_label = "inactive"

[[record]]
compound = "CCc1ccc(-c2ccc(-n3nc(C)c4c(N)nc(Cc5ccccc5)nc43)cc2)cc1"
category_label = "inactive"

[[record]]
compound = "O=C(Nc1cccc2c1CCCC2)c1cc2ccccc2cc1O"
category_label = "active"

[[record]]
compound = "C/C(=N\\O)c1ccc(NC(=O)CSc2nnc(-c3ccccc3)n2-c2ccccc2)cc1"
category_label = "inactive"

[[record]]
compound = "CC(=O)OC1C=CC(OC(C)=O)O1 (stereo unspecified)"
category_label = "inactive"

[[record]]
compound = "CCCCCCCCCCCC[n+]1c(C)cc(N)c2ccccc21"
category_label = "active"

[[record]]
compound = "O=[N+]([O-])c1cc(Cl)cc(Cl)c1O"
category_label = "inactive"

[[record]]
compound = "O=C1Cc2cc(CCN3CCN(c4nsc5ccccc45)CC3)c(Cl)cc2N1"
category_label = "inactive"

[[record]]
compound = "Cc1cc(NC(=O)c2ccc(C)c(Nc3nccc(-c4cccnc4)n3)c2)cc(-n2cnc(C)c2)c1"
category_label = "active"

[[record]]
compound = "Cc1ccc(C(=O)/C=C/c2ccccc2)s1"
category_label = "inactive"

[[record]]
compound = "CC(C)=CCC/C(C)=C/CC/C(C)=C/CC/C=C(\\C)CC/C=C(\\C)CCC(=O)Nc1ccn(C2OC(CO)C(O)C2(F)F)c(=O)n1 (stereo unspecified)"
category_label = "inactive"

[[record]]
compound = "Cc1ccc(C2=NN(c3ccc(S(C)(=O)=O)cc3)C(=O)CC2)cc1"
category_label = "inactive"

[[record]]
compound = "CCN(CC)CCCC(Nc1c2ccc(Cl)cc2nc2ccc(OC)cc12)c1ccc(F)cc1 (stereo unspecified)"
category_label = "active"

[[record]]
compound = "OCC1OC(n2ccc3c(NO)ncnc32)C(O)C1O (stereo unspecified)"
category_label = "active"

[[record]]
compound = "CC[C@@H](C(=O)[C@@H](C)[C@@H](O)[C@H](C)[C@@H]1O[C@@H]([C@@H](CC)C(=O)O)CC[C@@H]1C)C1O[C@]2(C=CC(=O)[C@]3(CC[C@@](C)([C@H]4CC[C@](O)(CC)[C@H](C)O4)O3)O2)[C@H](C)C[C@@H]1C (stereo partly specified)"
category_label = "inactive"

[[record]]
compound = "OCC1OC(n2cnc3c(NCc4ccco4)ncnc32)C(O)C1O (stereo unspecified)"
category_label = "active"

[[record]]
compound = "CC(C)N(CCOc1ccc(-c2nc3sccn3c2-c2ccnc(S(C)(=O)=O)n2)cc1)C(C)C"
category_label = "inactive"

[[record]]
compound = "C#CCOc1c(OC)cc(C(=O)/C(C)=C/c2cccc(N=[N+]=[N-])c2)cc1OC"
category_label = "active"

[[record]]
compound = "O[C@@H]1CO[C@H]2[C@@H]1OC[C@@H]2O"
category_label = "inactive"

[[record]]
compound = "CC1=NN(C(=O)c2nn(-c3ccc(Cl)cc3)cc2O)C(=O)C1"
category_label = "inactive"

[[record]]
compound = "CCOC(=O)Cn1c(=O)c2sc3ncccc3c2n2nnc(-c3ccccc3)c12"
category_label = "inactive"

[[record]]
compound = "COc1ccc(C(=O)c2ccccc2CN2C(=O)c3ccccc3C2=O)cc1"
category_label = "inactive"

[[record]]
compound = "COc1cc2c(cc1NC(=O)C(Cl)Cl)-c1ccc(NC(=O)C(Cl)Cl)cc1C2"
category_label = "active"

[[record]]
compound = "CC(C)(O)CCl"
category_label = "inactive"

[[record]]
compound = "COc1ccc(-c2nc(-c3nc4ccc(C)cc4[nH]3)cc3c2[nH]c2ccccc23)cc1"
category_label = "inactive"

[[record]]
compound = "Cc1c(Cl)cccc1NC(=O)CCCl"
category_label = "inactive"

[[record]]
compound = "CNS(=O)(=O)Oc1ccc(-c2sc3cc(OS(=O)(=O)NC)ccc3c2C(=O)c2ccc(OCCN3CCCCC3)cc2)cc1"
category_label = "inactive"

[[record]]
compound = "Nc1cc(-c2ccc(Cl)cc2)nn1-c1nc2ccccc2nc1Cc1ccccc1"
category_label = "inactive"

[[record]]
compound = "CNC(=O)c1cc(Oc2ccc3c(c2)sc2nc(-c4ccc(N)cc4)cn23)ccn1"
category_label = "active"

[[record]]
compound = "O=[N+]([O-])c1cccc(/C=N/NC(=S)NC23CC4CC(CC(C4)C2)C3)c1"
category_label = "inactive"

[[record]]
compound = "O=C(O)c1ccc(-n2cc(CNc3ccc(Oc4ccccc4)cc3)c(-c3ccccc3)n2)cc1"
category_label = "inactive"

[[record]]
compound = "COc1ccc2nc3cc(Cl)ccc3c(NCCCNCCO)c2c1"
category_label = "active"


###

Test system: SK-MEL-28 melanoma
protocol description: NCI-60 one-dose screen, 48 h (100 = growth as untreated, 0 = no growth, -100 = all killed)
conditions: 10 µM
This is part of a sample that, as a whole, favours compounds with a hit. Of some 83,000 tested, about 20% had one in any assay.
quantity kind: growth (%)

[[record]]
compound = "O=c1[nH]c(=O)n(C2C[C@H](O)[C@@H](CO)O2)cc1C(F)(F)F (some centres undefined)"
quantity_kind = "growth"
units_text = "%"
result_value = 120

[[record]]
compound = "CS(=O)(=O)c1nccc(-c2c(-c3ccc(OCCc4ccccc4)cc3)nc3sccn23)n1"
quantity_kind = "growth"
units_text = "%"
result_value = 96.3

[[record]]
compound = "COc1ccc(-c2csc(NC(=O)c3ccc(Cc4n[nH]c(=O)c5cccnc45)cc3)n2)cc1"
quantity_kind = "growth"
units_text = "%"
result_value = 95.2

[[record]]
compound = "O=C(NCCCNS(=O)(=O)c1ccc(Cl)cc1)Nc1ccc(-n2cc(-c3ccncc3)c(-c3ccc(Cl)c(O)c3)n2)cc1"
quantity_kind = "growth"
units_text = "%"
result_value = 40.7

[[record]]
compound = "Cc1cc(CC(C)CC(C)(C)C)n(O)c(=O)c1 (centres undefined) (tested in a mixture with another compound)"
quantity_kind = "growth"
units_text = "%"
result_value = 25.1

[[record]]
compound = "Cc1ccc2nc(Cl)c(-c3nc4ccccc4o3)cc2c1"
quantity_kind = "growth"
units_text = "%"
result_value = 104

[[record]]
compound = "COc1ccc(-c2n[nH]nc2-c2cc(OC)c(OC)c(OC)c2)cc1"
quantity_kind = "growth"
units_text = "%"
result_value = 64.4

[[record]]
compound = "COc1ccc(-c2nn(-c3cccc(Cl)c3)cc2-c2cc(-c3ccccc3)nc(N)n2)cc1"
quantity_kind = "growth"
units_text = "%"
result_value = 83.8

[[record]]
compound = "Cc1cc(NC(=O)c2ccc(C)c(Nc3nccc(-c4cccnc4)n3)c2)cc(-n2cnc(C)c2)c1"
quantity_kind = "growth"
units_text = "%"
result_value = 41.5

